- TESTED SYSTEM: pooled human IgG (human IgG1,2,3 and 4)
# Enzyme activity endpoint: Fab′2 per record follows
READOUT KIND: Enzyme activity endpoint: Fab′2 (ng/µL)

>  <PROTEIN>
PRT-617 (protein) MQITSVWTKGVTPLTPEQFRYNNEDVIHAPYLPHQGWYDITKAFDGGDNLLCGAATAGNMLHWWFDQNKTEIEAYLSKYPEKQKIIFNNQELFDLRAAINSKDSQTNSQLFNYFRDKAFPNLSARQLGVMPDLVLDMFINGYYLNVFKTQSTDVNRPYQDPDKRGGIFDDVFKEGDQTTLLTARHDLKNGGLNDISTIIKQELQSGRALALSHTYANVSISHVINLWGADFNAEGNLEAIYVTDSDANQSIGMKKYKVGINAHGHVAISAKKIEGENIGAQVLGLFTLSSGKEIWQKLSLEHHHHHH

>  <QUANTITY UNIT>
ng/µL

>  <RECORDED NUMBER>
630

$$$$
>  <PROTEIN>
PRT-669 (protein) MQITSVWTKGVTPPTPEQFTNNNEDVFHAPYLANQGWYDITKTFNGKDNLLCGAATAGNMLHWWFDQNKEQIEAYLKKHPEKQKIIFNNQEMFDLKKAIDTKDSQTNSALFNYFRDKAFPNLSARQLGVMPDLVLDMFINGYYLNVGKTQSTDVNRPYQTKDKRGGIFDAVFTRGDQTKLLTARHDLKNKGLNEISDLIKQELTEGKALALSHTYANVRINHVINLWGADFNAEGNLIAIYVTDSDSNASIGMKKYFVGVNSAGKVAISAKKIEGDNIGAQVLGLFTLSSGQDIWQKLSLEHHHHHH

>  <QUANTITY UNIT>
ng/µL

>  <RECORDED NUMBER>
808

$$$$
